# TEST NAME: Tested for antagonist activity on non-NMDAR (expressed in Xenopus Oocytes) from rat brain mRNA.
# Format: functional, cell-based
pIC50: −log10 of the molar value.
This listing pairs compounds with measured pIC50.

| COMPOUND | pIC50 |
| --- | --- |
| CCCC(=O)N[C@@H](Cc1ccc(O)cc1)C(=O)NCCCCCCCCCCCCN | < 4.00 |
| CCCC(=O)N[C@@H](Cc1ccc(O)cc1)C(=O)NCCCNCCCCNCCCN [PHILANTHOTOXIN 343] | 6.12 |
| CCCC(=O)N[C@@H](Cc1ccc(O)cc1)C(=O)NCCCOCCCCOCCCN | < 4.00 |
